Measured IC50 accompanies every entry in the list below.
- tested-target: human α2C receptor (Homo sapiens, UniProt P18825)
- Construct: expressed in transfected cells; host or cells: CHO cells, also recombinantly expressing chimeric G protein Gαqi3 and mitochondrial obelin (mtOb)
- Sequence (P18825 whole entry): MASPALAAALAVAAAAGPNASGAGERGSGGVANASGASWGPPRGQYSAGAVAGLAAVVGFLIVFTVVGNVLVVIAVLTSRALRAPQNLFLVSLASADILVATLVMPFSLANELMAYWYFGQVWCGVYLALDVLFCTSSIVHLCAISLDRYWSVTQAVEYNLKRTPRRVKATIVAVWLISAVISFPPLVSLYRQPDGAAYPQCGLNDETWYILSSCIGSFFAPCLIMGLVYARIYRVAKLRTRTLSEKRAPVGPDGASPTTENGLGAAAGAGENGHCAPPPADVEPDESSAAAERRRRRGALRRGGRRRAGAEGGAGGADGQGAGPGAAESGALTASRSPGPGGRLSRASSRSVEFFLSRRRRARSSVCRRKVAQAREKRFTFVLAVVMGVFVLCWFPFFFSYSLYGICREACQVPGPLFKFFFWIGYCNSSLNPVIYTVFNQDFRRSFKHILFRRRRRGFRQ
- assay-details: Antagonism against the adrenoreceptor α2C (luminescence, recombinant CHO cell line)
- Format: cell-based
- measurement-parameters: antagonism against adrenoreceptor α2C; noradrenaline 20 nM; tested up to 10 μM; read-out: IC50
Structures can show the parent of a compound that is named as a salt.

Solved cases (3 shown):
{"compound": "CC(C)(O)c1ccc(C(=O)N2CCC(N3CCCC(OCCOC(F)(F)F)C3)CC2)cc1 (stereo not shown)", "tested-target": "human α2C receptor (Homo sapiens, UniProt P18825)", "observed-property": "IC50", "experimental-result": "154 nM"}
{"compound": "CC1CCN(C(=O)c2ccc(C(=O)N3CCC(N4CCCC(C)C4)CC3)cc2)C(C)C1 (stereo not shown)", "tested-target": "human α2C receptor (Homo sapiens, UniProt P18825)", "observed-property": "IC50", "experimental-result": "128 nM"}
{"compound": "CC1CCCN(C2CCN(C(=O)c3ccc(C(=O)NCc4cccc(Cl)n4)cc3)CC2)C1 (stereo not shown) [Example 76, trifluoroacetic acid salt]", "tested-target": "human α2C receptor (Homo sapiens, UniProt P18825)", "observed-property": "IC50", "experimental-result": "445 nM"}

IC50 for CCOCc1ccc(C(=O)N2CCC(N3CCCC(C)C3)CC2)cc1 (stereo not shown) is 267 nM
